System Name: hERG (Homo sapiens)
Sequence (Q12809 whole entry): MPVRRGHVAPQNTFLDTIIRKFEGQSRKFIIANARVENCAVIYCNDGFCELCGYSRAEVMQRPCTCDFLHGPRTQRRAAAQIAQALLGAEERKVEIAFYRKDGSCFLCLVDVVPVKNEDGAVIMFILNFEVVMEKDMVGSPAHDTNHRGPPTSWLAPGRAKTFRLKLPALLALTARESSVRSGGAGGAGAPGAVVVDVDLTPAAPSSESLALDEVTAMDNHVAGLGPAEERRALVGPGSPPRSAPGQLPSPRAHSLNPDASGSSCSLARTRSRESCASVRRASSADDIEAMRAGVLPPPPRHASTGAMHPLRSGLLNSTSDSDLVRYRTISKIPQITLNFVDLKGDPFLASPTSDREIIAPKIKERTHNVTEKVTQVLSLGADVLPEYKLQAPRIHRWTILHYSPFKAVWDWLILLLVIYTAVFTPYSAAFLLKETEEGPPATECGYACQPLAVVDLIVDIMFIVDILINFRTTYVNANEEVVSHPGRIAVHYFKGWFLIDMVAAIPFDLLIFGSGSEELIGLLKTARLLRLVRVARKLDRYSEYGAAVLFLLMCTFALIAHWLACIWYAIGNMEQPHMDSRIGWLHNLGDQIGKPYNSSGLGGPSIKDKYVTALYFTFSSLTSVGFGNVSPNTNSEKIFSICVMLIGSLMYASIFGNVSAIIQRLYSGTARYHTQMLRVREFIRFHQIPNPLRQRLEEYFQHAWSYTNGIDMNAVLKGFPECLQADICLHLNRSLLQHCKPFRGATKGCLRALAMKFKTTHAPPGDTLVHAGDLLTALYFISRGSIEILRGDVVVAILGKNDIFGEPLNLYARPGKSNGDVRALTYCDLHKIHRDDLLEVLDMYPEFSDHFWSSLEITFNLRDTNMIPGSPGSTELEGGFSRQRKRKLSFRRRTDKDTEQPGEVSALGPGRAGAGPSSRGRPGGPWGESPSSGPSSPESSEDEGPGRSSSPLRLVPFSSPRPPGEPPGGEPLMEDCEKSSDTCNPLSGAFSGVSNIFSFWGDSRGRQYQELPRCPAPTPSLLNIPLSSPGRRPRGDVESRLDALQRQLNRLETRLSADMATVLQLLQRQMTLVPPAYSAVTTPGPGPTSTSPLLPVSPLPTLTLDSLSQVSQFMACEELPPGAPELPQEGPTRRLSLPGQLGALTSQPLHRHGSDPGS
Protocol Description: hERG IC50
pIC50: −log10 of the molar value. Counter-ions that a name gives are not always drawn.

[
  {
    "Compound": "O=C1CCC(N2C(=O)c3ccc(C4(O)CCN(Cc5ccc6scnc6c5)CC4)cc3C2=O)C(=O)N1 (stereo not shown) [Compound 111, HCl salt]",
    "System Name": "hERG (Homo sapiens)",
    "pIC50": "< 4.52"
  },
  {
    "Compound": "O=C1CCC(N2C(=O)c3ccc(C4(O)CCN(Cc5ccc(F)c(F)c5)CC4)cc3C2=O)C(=O)N1 (stereo not shown) [Compound 60, HCl salt]",
    "System Name": "hERG (Homo sapiens)",
    "pIC50": 4.64
  },
  {
    "Compound": "O=C1CCC(N2C(=O)c3ccc(C4(O)CCN(C5CCc6ncccc65)CC4)cc3C2=O)C(=O)N1 (stereo not shown) [Compound 7, HCl salt]",
    "System Name": "hERG (Homo sapiens)",
    "pIC50": "< 4.52"
  },
  {
    "Compound": "CC1CC(O)(c2ccc3c(c2)C(=O)N(C2CCC(=O)NC2=O)C3=O)CCN1Cc1ccccc1 (stereo not shown)",
    "System Name": "hERG (Homo sapiens)",
    "pIC50": "< 4.52"
  }
]
